# pEC50 values compiled below
- TARGET_DESC: human κ opioid receptor (OPRK1) (Homo sapiens)
- Construct: expressed in transfected cells; host or cells: CHO-K1
- EXPERIMENT_DESCRIPTION: Determination of activities of κ receptor agonists: inhibition of forskolin-stimulated cAMP release (HTRF) in stably transfected CHO-K1 cells
- Assay type: cell-based
pEC50: −log10 of the molar value. Square brackets hold non-standard residues; d marks the D form. Peptide text beside a SMILES is read from it. * marks the point of attachment. X10 = NCCCC[C@@H](NC(=O)C1(N)CCN(*)CC1)C(=O)O
MEASURED_METRIC: pEC50

CCc1ccc(C[C@@H](NC(=O)[C@H](N)Cc2ccccc2)C(=O)N[C@H](CC(C)C)C(=O)N[C@H](CCCCN)C(=O)N2CCC(N)(C(=O)N[C@@H](CCCCN)C(N)=O)CC2)cc1 [Compound 131] = 9.87
CCOc1ccc(C[C@@H](NC(=O)[C@H](N)Cc2ccccc2)C(=O)N[C@H](CC(C)C)C(=O)N[C@H](CCCCN)C(=O)N2CCC(N)(C(=O)N[C@H](CCCCN)C(=O)O)CC2)cc1 [Compound 16] (H-[dF][dY](Et)[dL][dK]-X10; N-terminus assumed) = 10.37

====

- TARGET_DESC: human κ opioid receptor (OPRK1) (Homo sapiens)
- Construct: expressed in transfected cells; host or cells: CHO-K1
- EXPERIMENT_DESCRIPTION: Determination of activities of κ receptor agonists: inhibition of forskolin-stimulated cAMP release (HTRF) in stably transfected CHO-K1 cells
- Type: cell-based
- CONDITION_INFO: relative to Difelikefalin = 100.0
Square brackets hold non-standard residues; d marks the D form. Peptide text beside a SMILES is read from it. * marks the point of attachment. X6 = NCCCC[C@H](NC(=O)C1(N)CCN(*)CC1)C(N)=O; dAla(cPr) = N[C@H](CC1CC1)C(=O)O
MEASURED_METRIC: Relative Activity % (%)

Cc1ccc(C[C@@H](NC(=O)[C@H](N)Cc2ccccc2)C(=O)N[C@H](CC(C)C)C(=O)N[C@H](CCCCN)C(=O)N2CCC(N)(C(=O)N[C@@H](CCCCN)C(N)=O)CC2)cc1 = 385.8
CCOc1ccc(C[C@@H](NC(=O)[C@H](N)Cc2ccccc2)C(=O)N[C@H](CC2CC2)C(=O)N[C@H](CCCCN)C(=O)N2CCC(N)(C(=O)N[C@@H](CCCCN)C(N)=O)CC2)cc1 [Compound 69] (H-[dF][dY](Et)[dAla(cPr)][dK]-X6; N-terminus assumed) = 1432.1

====

- TARGET_DESC: human κ opioid receptor (OPRK1) (Homo sapiens, UniProt P41145)
- Construct: expressed in transfected cells; host or cells: CHO-K1
- Sequence (P41145 whole entry): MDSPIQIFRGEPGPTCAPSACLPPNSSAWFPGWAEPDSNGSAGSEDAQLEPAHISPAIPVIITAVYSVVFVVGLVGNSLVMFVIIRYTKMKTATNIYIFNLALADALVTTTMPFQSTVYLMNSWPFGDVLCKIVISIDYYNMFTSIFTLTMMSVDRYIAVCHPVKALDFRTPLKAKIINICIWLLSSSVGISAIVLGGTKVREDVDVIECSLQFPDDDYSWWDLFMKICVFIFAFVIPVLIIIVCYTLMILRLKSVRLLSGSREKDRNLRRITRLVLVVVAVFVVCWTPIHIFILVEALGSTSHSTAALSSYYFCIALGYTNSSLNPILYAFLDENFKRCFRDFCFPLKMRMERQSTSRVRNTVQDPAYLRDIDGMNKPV
- EXPERIMENT_DESCRIPTION: Determination of activities of κ receptor agonists: inhibition of forskolin-stimulated cAMP release (HTRF) in stably transfected CHO-K1 cells
- Assay type: cell-based
- CONDITION_INFO: CHO-K1 cell line stably expressing opioid receptors; forskolin-stimulated cAMP; HTRF; read-out: EC50
- Excerpt: Gi-coupled human κ opioid receptor (OPRK1), upon stimulation with its specific opioid receptor agonists, can inhibit the intracellular adenylate cyclase pathway, and decrease cAMP levels. Forskolin can stimulate cAMP release in cell lines highly expressing opioid receptors. By stimulating cell lines stably transfected with opioid receptors, the inhibitory effect of a test compound on forskolin-stimulated cAMP release can be measured to determine the activity of the compound. […]
pEC50: −log10 of the molar value. Square brackets hold non-standard residues; d marks the D form. Peptide text beside a SMILES is read from it. * marks the point of attachment. Piperidin1yl(4-NH2,4-COOH) = NC1(C(=O)O)CCN(*)CC1; Piperidinyl(4-NH2,4-CONH2) = NC(=O)C1(N)CCN(*)CC1; X6 = NCCCC[C@H](NC(=O)C1(N)CCN(*)CC1)C(N)=O; dAla(cPr) = N[C@H](CC1CC1)C(=O)O
# maps each entry to its pEC50
MEASURED_METRIC: pEC50

CC(C)C[C@@H](NC(=O)[C@@H](Cc1ccccc1)NC(=O)[C@H](N)Cc1ccccc1)C(=O)N[C@H](CCCCN)C(=O)N1CCC(N)(C(=O)O)CC1 [Difelikefalin, reference compound] = 9.22
CCOc1ccc(C[C@@H](NC(=O)[C@H](N)Cc2ccccc2)C(=O)N[C@H](CC2CC2)C(=O)N[C@H](CCCCN)C(=O)N2CCC(N)(C(N)=O)CC2)cc1 [Compound 67] (H-[dF][dY](Et)[dAla(cPr)][dK]-{Piperidinyl(4-NH2,4-CONH2)}; N-terminus assumed) = 9.90
CCOc1ccc(C[C@@H](NC(=O)[C@H](N)Cc2ccccc2)C(=O)N[C@H](CC2CC2)C(=O)N[C@H](CCCCN)C(=O)N2CCC(N)(C(=O)O)CC2)cc1 [Compound 68] (H-[dF][dY](Et)[dAla(cPr)][dK]-{Piperidin1yl(4-NH2,4-COOH)}; N-terminus assumed) = 9.90
CCOc1ccc(C[C@@H](NC(=O)[C@H](N)Cc2ccccc2)C(=O)N[C@H](CC2CC2)C(=O)N[C@H](CCCCN)C(=O)N2CCC(N)(C(=O)N[C@@H](CCCCN)C(N)=O)CC2)cc1 [Compound 69] (H-[dF][dY](Et)[dAla(cPr)][dK]-X6; N-terminus assumed) = 10.37
